Each entry below carries its recorded cell viability.
Test system: Vero E6
assay_notes: cell viability relative to DMSO; higher = less toxic
settings: 72 h; 100 nM

{"compound": "COc1ccc(-c2ccc(=N)n(CCCC(=O)O)n2)cc1 [gabazine]", "target_or_test_system": "Vero E6", "cell viability": "98.9%"}
{"compound": "Nc1nc2c(ccc3ccccc32)s1 [SKA-31]", "target_or_test_system": "Vero E6", "cell viability": "103%"}
{"compound": "N[C@H]1C[C@@H]1c1ccccc1 (racemic) [tranylcypromine]", "target_or_test_system": "Vero E6", "cell viability": "93.3%"}
{"compound": "Fc1ccc(C(OCCN2CCN(CCCc3ccccc3)CC2)c2ccc(F)cc2)cc1 [vanoxerine]", "target_or_test_system": "Vero E6", "cell viability": "104%"}
{"compound": "O=C1c2cccc(O)c2C(=O)c2c(O)cccc21 [dantron]", "target_or_test_system": "Vero E6", "cell viability": "100%"}
{"compound": "C=Cc1cc(O)cc2nc(-c3ccc(O)c(F)c3)oc12 [prinaberel]", "target_or_test_system": "Vero E6", "cell viability": "98%"}
{"compound": "COC(=O)/C=C/c1cc(O)ccc1O [erbstatin-analog]", "target_or_test_system": "Vero E6", "cell viability": "94.7%"}
{"compound": "CC(N)CCCC(C)(C)O (stereo not drawn) [heptaminol]", "target_or_test_system": "Vero E6", "cell viability": "97.3%"}
